# maps each entry to its cell-surface Lgr5 expression
Test system: Lgr5 (MarsCy1-Lgr5-EGFP, U2OS)
Test: cell-surface Lgr5 expression (SCi1 fluorescence, background-subtracted) relative to WT DMSO (fold of DMSO control); higher = more Lgr5 at the plasma membrane, active = hit call of the paper
Details: U2OS MarsCy1-Lgr5-EGFP stable; treatment time: overnight; 16 µM; library: Johns Hopkins Clinical Compound Library
Structures can show the parent of a compound that is named as a salt. Among all 1,200 compounds or so, about 50 (4%) showed activity. The list comes from a sample in which actives are over-represented; it also holds close analogues and randomly drawn compounds.
observed_property: cell-surface Lgr5 expression

{"compound": "ClC1=C(Cl)C2(Cl)C(CBr)CC1(Cl)C2(Cl)Cl (stereo not drawn)", "test_result": 1.24}
{"compound": "C[C@]12CC[C@H](O)CC1=CC[C@@H]1[C@@H]2CC[C@]2(C)C(=O)CC[C@@H]12 [Prasterone (dehydroisoandrosterone)]", "test_result": 1.09}
{"compound": "NC(=O)CN1CC(O)CC1=O (stereo not drawn)", "test_result": 1.36}
{"compound": "COc1ccc(O)c(C(C)(C)C)c1.COc1ccc(O)cc1C(C)(C)C [Butylated hydroxyanisole]", "test_result": 1.15}
{"compound": "CCN(CC)C(=O)N[C@H]1C=C2c3cccc4[nH]cc(c34)C[C@H]2N(C)C1 [Lisuride]", "test_result": 1.1}
{"compound": "C[C@]12CCC(=O)C(O)=C1CC[C@@H]1[C@@H]2CC[C@]2(C)C(=O)CC[C@@H]12", "test_result": 1.18}
{"compound": "C=C[C@H]1CN2CC[C@H]1C[C@@H]2[C@@H](O)c1ccnc2ccccc12 [Cinchonine sulfate]", "test_result": 1.25}
{"compound": "C=C1C[C@@H]2[C@H](CC[C@]3(C)C(=O)CC[C@@H]23)[C@@]2(C)C=CC(=O)C=C12", "test_result": 1.48}
